Source: PubChem BioAssay (NCATS)

Tested on: P93_24
experimental_details: qHTS profiling for inhibitors of Plasmodium falciparum proliferation (AID 504749); also: nearly all actives have a fitted effect of over 60% in size
conditions_used: P. falciparum in erythrocytes, SYBR Green DNA, 72 h; series mostly up to 28.7 µM
Records with an inconclusive call do not appear. Activity calls are given as the source filed them. Calls follow the shape of the dose curve; as a rule, active = well fitted inhibition curve with a large enough effect; inconclusive = small, poorly fitted or top-dose-only effect; inactive = flat fitted curve, though single readings scatter.
Use one of these outcomes when replying: y (active), n (inactive)

compound=CC(C)(C)NC[C@H](O)COc1nsnc1N1CCOCC1 assigned_class=y
compound=CCN(CC)CCNc1ccc(CO)c2sc3ccccc3c(=O)c12 assigned_class=y
compound=CC(=O)NCCCCCC(=O)O assigned_class=n
compound=O=C(O)C1(C(=O)O)CCC1.[NH2-].[NH2-].[Pt+2] assigned_class=n
compound=O=C1C(O)=C(O)C(=O)C(O)=C1O assigned_class=n
compound=CC(=O)N[C@@H](CCC(=O)O)C(=O)O assigned_class=n
compound="CCC1Nc2cc(Cl)c(S(N)(=O)=O)cc2S(=O)(=O)N1 (stereo not drawn)" assigned_class=n
compound=CCN(CC)CCNC(=O)c1cc(Br)c(N)cc1OC assigned_class=n
compound=Nc1nc(N)c(-c2ccccc2)s1 assigned_class=n
compound=CCCCCCCCOc1ccc(C(=O)c2ccccc2)c(O)c1 assigned_class=n

Request: Each compound tested received a call. Report the one for CC(=O)NO .
Response: n

Request: Each compound tested received a call. Report the one for Cc1cccc(C)c1NC(=O)c1ccccc1C(=O)O .
Response: n

Request: Each compound tested received a call. Report the one for FC(F)(F)C(F)(F)C(F)(F)C(F)(F)C(F)(F)C(F)(F)C(F)(F)C(F)(F)Br .
Response: n

---

Tested on: ATS189
experimental_details: qHTS profiling for inhibitors of Plasmodium falciparum proliferation (AID 504749); also: nearly all actives have a fitted effect of over 60% in size
conditions_used: P. falciparum in erythrocytes, SYBR Green DNA, 72 h; series mostly up to 28.7 µM
Results filed as inconclusive are left out. The source made the active and inactive calls. Calls come from the whole dose curve; as a rule, active = well fitted inhibition curve with a large enough effect; inconclusive = small, poorly fitted or top-dose-only effect; inactive = flat fitted curve, though single readings scatter.
Use one of these outcomes when replying: label 1 (active), label 0 (inactive)

compound="CCCCC(CC)COC(=O)/C=C/c1ccc(OC)cc1 (configuration not stated)" assigned_class="label 0"

Request: Each compound tested received a call. Report the one for COc1ccc2c(c1)c1c3n2CCN(C)C3=NCC1 .
Response: label 0

Request: Each compound tested received a call. Report the one for NCCNC(=O)c1ccc(Cl)cn1 .
Response: label 0

---

Would you kindly list max response for each of these compounds?
tgt: Nuclear receptor subfamily 1 group I member 2 (Rattus norvegicus)
experimental_details: qHTS assay for small molecule activators of the rat pregnane X receptor (rPXR) signaling pathway (AID 651751); also: 0% is about no effect
conditions_used: rPXR reporter cells, luciferase (One-Glo), 24 h
Give bare numbers, in %.

chemical_structure=O=C(O)c1ccc(S(=O)(=O)N(Cl)Cl)cc1 value_measured=3.23
chemical_structure=CCCCCCCCCCCCCC(=O)OC(C)C value_measured=2.24
chemical_structure=NC(=O)c1ccccc1O value_measured=-4.39
chemical_structure=CN(C)C(=O)Nc1ccc(Cl)c(Cl)c1 value_measured=5.92

Could you now consider this next compound?
Quick note, max response for CCCCOC(=O)CC(CC(=O)OCCCC)(OC(C)=O)C(=O)OCCCC landed at 12

---

tgt: Voltage-gated inwardly rectifying potassium channel KCNH2 (Homo sapiens) (UniProt Q12809)
Sequence (Q12809 whole entry, looked up): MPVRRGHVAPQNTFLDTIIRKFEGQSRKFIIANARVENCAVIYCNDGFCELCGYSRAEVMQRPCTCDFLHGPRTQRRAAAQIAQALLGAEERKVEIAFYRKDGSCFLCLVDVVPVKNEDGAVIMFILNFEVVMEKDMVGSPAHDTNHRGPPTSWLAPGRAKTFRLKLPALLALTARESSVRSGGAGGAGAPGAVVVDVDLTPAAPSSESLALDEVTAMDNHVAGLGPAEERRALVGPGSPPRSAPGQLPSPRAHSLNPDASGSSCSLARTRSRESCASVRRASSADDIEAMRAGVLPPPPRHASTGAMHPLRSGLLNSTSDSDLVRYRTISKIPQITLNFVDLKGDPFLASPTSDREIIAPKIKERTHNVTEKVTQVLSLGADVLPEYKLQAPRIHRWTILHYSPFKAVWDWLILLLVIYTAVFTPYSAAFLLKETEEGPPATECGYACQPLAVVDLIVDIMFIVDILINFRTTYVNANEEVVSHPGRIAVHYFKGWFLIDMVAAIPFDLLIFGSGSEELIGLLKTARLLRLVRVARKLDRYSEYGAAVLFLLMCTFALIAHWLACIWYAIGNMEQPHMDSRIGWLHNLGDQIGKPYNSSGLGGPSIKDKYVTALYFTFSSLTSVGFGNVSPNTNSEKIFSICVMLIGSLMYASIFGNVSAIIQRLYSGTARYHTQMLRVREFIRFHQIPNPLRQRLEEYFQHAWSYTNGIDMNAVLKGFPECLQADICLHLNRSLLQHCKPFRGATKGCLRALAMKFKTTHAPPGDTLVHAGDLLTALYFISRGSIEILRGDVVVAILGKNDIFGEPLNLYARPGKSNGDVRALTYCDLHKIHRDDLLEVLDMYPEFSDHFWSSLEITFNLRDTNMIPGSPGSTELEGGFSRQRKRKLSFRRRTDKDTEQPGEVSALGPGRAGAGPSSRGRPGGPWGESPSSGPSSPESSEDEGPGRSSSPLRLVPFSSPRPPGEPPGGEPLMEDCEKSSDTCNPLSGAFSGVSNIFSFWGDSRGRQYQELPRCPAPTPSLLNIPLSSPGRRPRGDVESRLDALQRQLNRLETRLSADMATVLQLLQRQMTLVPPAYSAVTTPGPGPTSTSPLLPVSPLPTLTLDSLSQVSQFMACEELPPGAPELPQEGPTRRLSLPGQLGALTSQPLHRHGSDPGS
experimental_details: qHTS Assay for Small Molecule Inhibitors of the Human hERG Channel Activity (AID 588834);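 also: lower thallium flux fluorescence means stronger hERG block; nearly all actives have a fitted effect of over 50% in size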; also: potency is read from the fitted curve at half-maximal effect
conditions_used: U2OS BacMam hERG, FluxOR thallium flux fluorescence; series mostly up to 46.1 µM
Inconclusive results are not listed. The source made the active and inactive calls. Calls follow the shape of the dose curve; as a rule, active = well fitted inhibition curve with a large enough effect; inconclusive = small, poorly fitted or top-dose-only effect; inactive = flat fitted curve, though single readings scatter.
reported_property: Potency

Illustrative cases are given below, each with its answer.
molecule=Cc1cccc(C)c1NC(=O)CN1CCCCCC1 value_measured=inactive
molecule=CC(=O)OC[C@H]1O[C@@H](n2ncc(=O)[nH]c2=O)[C@H](OC(C)=O)[C@@H]1OC(C)=O value_measured=inactive
molecule=CC(=O)NCCCCCC(=O)O value_measured=inactive
molecule=CCN(CC)CCNC(=O)COc1ccc(OC)cc1 value_measured=inactive
molecule=Cl/C(=C\n1cncn1)c1ccc(Cl)cc1Cl value_measured=inactive
molecule=CCCCNC(=O)NS(=O)(=O)c1ccc(N)cc1 value_measured=inactive
molecule=COc1ccc(C(=O)c2ccccc2)c(O)c1 value_measured="35.5 µM (active)"
molecule=CC(=O)OCC1=C(C(=O)O)N2C(=O)[C@@H](NC(=O)CSc3ccncc3)[C@H]2SC1 value_measured=inactive

Report Potency for each item below.
1. CCCCC(CC)CN1CN(CC(CC)CCCC)CC(C)(N)C1 (stereo unspecified)
2. CN(C)CCOC(c1ccc(Cl)cc1)c1ccccn1 (stereo unspecified)
3. CCCCCCCCCCC[C@@H](C[C@@H]1OC(=O)[C@H]1CCCCCC)OC(=O)[C@H](CC(C)C)NC=O

Response:
1. 4.47 µM (active)
2. 14.1 µM (active)
3. inactive

---

System: Dd2
experimental_details: qHTS profiling for inhibitors of Plasmodium falciparum proliferation (AID 504749); also: nearly all actives have a fitted effect of over 60% in size
conditions_used: P. falciparum in erythrocytes, SYBR Green DNA, 72 h; series mostly up to 28.7 µM
Records with an inconclusive call do not appear. Active and inactive are the calls of the source. The call rests on the fitted dose curve; in most records, active means well fitted inhibition curve with a large enough effect; inconclusive means small, poorly fitted or top-dose-only effect; inactive means flat fitted curve, though single readings scatter.
Use one of these outcomes when replying: active, inactive

Consider the worked cases shown below.
compound=CCc1oc2ccccc2c1C(=O)c1cc(Br)c(O)c(Br)c1 assigned_class=inactive
compound=CCCN(CCC)S(=O)(=O)c1ccc(C(=O)O)cc1 assigned_class=inactive
compound=CCCN(CCc1cccs1)[C@H]1CCc2c(O)cccc2C1 assigned_class=active
compound="Cc1cc2c(OCC(CNC(C)(C)C)OC(=O)c3ccccc3)cccc2[nH]1 (configuration not stated)" assigned_class=active
compound=CC(=O)OCC(=O)[C@H]1CC[C@H]2[C@@H]3CCC4=CC(=O)CC[C@]4(C)[C@H]3CC[C@]12C assigned_class=inactive

Request: Each compound tested received a call. Report the one for O=S(=O)(O)c1ccc(O)cc1 .
Response: inactive

Request: Each compound tested received a call. Report the one for CCCCNc1ccc(C(=O)OCCOCCOCCOCCOCCOCCOCCOCCOCCOC)cc1 .
Response: inactive

Request: Each compound tested received a call. Report the one for CCCCCCCCCCCCOCCOCCOCCOCCOCCOCCOCCOCCOCCO .
Response: active

Request: Each compound tested received a call. Report the one for CCCCCCCCCCCCSCCOCCO .
Response: inactive

Request: Each compound tested received a call. Report the one for CCOc1ccc(NC(C)=O)cc1 .
Response: inactive

Request: Each compound tested received a call. Report the one for OC(C#CCN1CCCC1)(c1ccccc1)c1ccccc1 .
Response: active

Request: Each compound tested received a call. Report the one for NC(=S)N/N=C/c1cccnc1 .
Response: inactive

---

Tested on: CP217
experimental_details: qHTS profiling for inhibitors of Plasmodium falciparum proliferation (AID 504749); also: nearly all actives have a fitted effect of over 60% in size
conditions_used: P. falciparum in erythrocytes, SYBR Green DNA, 72 h; series mostly up to 28.7 µM
Description: NIH National Institute of Allergy and Infectious Diseases [NIAID] NIH Chemical Genomics Center [NCGC] […] Because mature erythrocytes lack DNA, only Plasmodium-derived DNA is detected. NCGC Assay Protocol Summary: The SYBR Green viability assay was adapted from a method described previously (Plouffe et al., 2008). […] The following morning, fluorescence intensity at 485(14) nm excitation and 535(25) nm emission wavelengths was measured on an EnVision (Perkin Elmer) plate reader. […]
Results filed as inconclusive are left out. Calls of active or inactive are those of the source. The call rests on the fitted dose curve; in most records, active means well fitted inhibition curve with a large enough effect; inconclusive means small, poorly fitted or top-dose-only effect; inactive means flat fitted curve, though single readings scatter.
Use one of these outcomes when replying: class 1 = active, class 0 = inactive

Consider the worked cases shown below.
chemical_structure=O=C(O)c1ccc(S(=O)(=O)N(Cl)Cl)cc1 tgt=CP217 assigned_class="class 0"
chemical_structure=CC(C)Cc1ccc(CC(=O)O)cc1 tgt=CP217 assigned_class="class 0"
chemical_structure=CN1CCN(CCC(=O)N2c3ccccc3Sc3ccc(C(F)(F)F)cc32)CC1 tgt=CP217 assigned_class="class 0"
chemical_structure=OCc1ccccn1 tgt=CP217 assigned_class="class 0"
chemical_structure=CCN(CC)CCNC(=O)c1cc(Br)c(N)cc1OC tgt=CP217 assigned_class="class 0"

Request: Each molecule tested received a call. Report the one for CCNC(=O)/C=C/c1cccc(Br)c1 .
Response: class 0

Request: Each molecule tested received a call. Report the one for Cn1c(=O)c2[nH]c(Br)nc2n(C)c1=O .
Response: class 0

Request: Each molecule tested received a call. Report the one for Oc1c(Cl)cc(Cl)c(Cl)c1Cc1c(O)c(Cl)cc(Cl)c1Cl .
Response: class 1

Request: Each molecule tested received a call. Report the one for NCCNc1cccc2ccccc12 .
Response: class 0

Request: Each molecule tested received a call. Report the one for COc1ccc(CN(CCN(C)C)c2ncccn2)cc1 .
Response: class 0

Request: Each molecule tested received a call. Report the one for C[C@@H](O)[C@H]1C(=O)N2C(C(=O)O)=C(S[C@@H]3CN[C@H](CNS(N)(=O)=O)C3)[C@H](C)[C@H]12 .
Response: class 0

Request: Each molecule tested received a call. Report the one for CCOC(=O)c1c(N)sc2c1CCN(Cc1ccccc1)C2 .
Response: class 1
